# System: CAKI-1
# test.name: NCI tumour cell line growth inhibition, 48 h
Active and inactive are the calls of the source. No stated cut-off is given here; in the data, active = GI50 up to about 1.1 µM and inactive = higher.
Outcomes: 1 (yes) (active), 0 (no) (inactive)

| molecule | label |
| --- | --- |
| N=NCC(=O)OC(COCc1ccccc1)COCc1ccccc1 | 0 (no) |
| CC(C)(C)C1(O)C=C(O)C(=O)N1NC(=O)c1ccccc1Nc1ccccc1 (stereo not given) | 0 (no) |
| O=C1c2cccnc2-c2nccc3c2c1nc1ccc(Br)cc13 | 1 (yes) |
| COc1c(C(=O)/C(=N/Nc2ccccc2)C(C)=O)c(O)c(OC)c2occc12 | 0 (no) |
| CSc1ncc2c(C#N)c3ccccn3c(=O)c2n1 | 0 (no) |
| CCN1C(=O)C(=C/C=C/C=C2/N(C)c3ccccc3C2(C)C)C(=O)N(CC)C1=S | 0 (no) |
| Cc1cccc2sc(NC(=O)c3cc([N+](=O)[O-])ccc3Cl)nc12 | 0 (no) |
| O=C1C=CC(=O)c2c1ccc1c3ccccc3n(CCCCCCCCn3c4ccccc4c4ccc5c(c43)C(=O)C=CC5=O)c21 | 0 (no) |
| C[C@H]1O[C@@H](C(C)(C)C)OC(=O)[C@@H]1C(OC(=O)c1ccccc1)c1cccc2ccccc12 (stereo not given in full) | 0 (no) |
| Clc1ccc(COc2ccccc2/C=N/c2c(-c3ccco3)nc3ccccn23)c(Cl)c1 | 0 (no) |

====

Reported GI50 values for a set of compounds
# Test system: BT-549
# test.name: NCI tumour cell line growth inhibition, 48 h
Active and inactive are the calls of the source. Rule as the data show it: active = GI50 up to about 1.1 µM and inactive = higher.

| compound | GI50 |
| --- | --- |
| Cc1ccc(S(=O)(=O)N2CCCSCCSCCCN(S(=O)(=O)c3ccc(C)cc3)CC2)cc1 | > 100 µM (inactive) |
| S=c1[nH]c(Cl)cc2nc(Cl)cn12 | 9.89 µM (inactive) |
| N#Cc1c(-c2ccc(Cl)cc2)c2c(n(C3OC(CO)C(O)C(O)C3O)c1=S)CCC2 (stereo unspecified) | 34.4 µM (inactive) |
| COc1ccc(OC)c(NC(=O)c2c(Cl)c(Cl)c(Cl)c(Cl)c2-c2nc3ccccc3[nH]2)c1 | > 100 µM (inactive) |
| Clc1cc(OCc2nn3c(Cc4ccccc4)nnc3s2)ccc1OCc1nn2c(Cc3ccccc3)nnc2s1 | 25.8 µM (inactive) |
| Nc1ncnc2c1ncn2C1OC(CO)C(O)C(O)C1O (stereo unspecified) | > 100 µM (inactive) |
| CN(C)NC1=NS(=O)(=O)c2cc3c(=O)n(C)[nH]c3cc2S1 | > 10 µM (inactive) |
| O=c1[nH]c(Cc2ccccc2)nc2c1sc1nc3ccccc3n12 | > 100 µM (inactive) |
| Cc1c([N+](=O)[O-])oc2ccc3ccccc3c12 | > 100 µM (inactive) |
| Nc1ccc2c(c1)nc1n2C(c2c(F)cccc2F)SC1 (stereo unspecified) | > 100 µM (inactive) |
| C=C1CC(C)(COc2cc(=O)oc3ccccc23)OC1=O (stereo unspecified) | 1.73 µM (inactive) |

====

# System: KM12
# test.name: NCI tumour cell line growth inhibition, 48 h
The source made the active and inactive calls. No stated cut-off is given here; in the data, active = GI50 up to about 1.1 µM and inactive = higher.
Measured GI50 values are reported for all entries that follow.

| compound | GI50 |
| --- | --- |
| CN(C)NC1=NS(=O)(=O)c2cc3c(=O)n(C)[nH]c3cc2S1 | > 10 µM (inactive) |
| Cc1ccc(S(=O)(=O)NC(=O)NC(Cc2c[nH]c3ccccc23)C(=O)O)cc1 (stereo not given) | > 100 µM (inactive) |
| Nc1ccccc1/N=N/c1c(S(=O)(=O)O)cc2cc(S(=O)(=O)O)cc(O)c2c1O | > 100 µM (inactive) |
| N#Cc1c(-c2ccc(Cl)cc2)c2c(n(C3OC(CO)C(O)C(O)C3O)c1=S)CCC2 (stereo not given) | 41.9 µM (inactive) |
| N/C(=N\Nc1ccc(C(=O)O)cc1)c1cnccn1 | > 100 µM (inactive) |
| O=S(=O)(O)c1cc(Cl)c(O)c2ncc(Cl)cc12 | > 100 µM (inactive) |
| COc1cc(/C=C/c2sc3ccccc3[n+]2C)ccc1N(C)C | 3.62 µM (inactive) |
| CC(C)c1cc(C(C)C)c(S(=O)(=O)N=[N+]=[N-])c(C(C)C)c1 | > 100 µM (inactive) |
| COc1ccc(C2SC(=N)Nc3c2c(C)nn3C(=O)c2ccc(Cl)cc2)cc1OC (stereo not given) | > 10 µM (inactive) |
| O=c1cc(CSc2c(-c3ccccc3)c(=O)n(-c3ccccc3)c(=S)n2-c2ccccc2)[nH]c(=O)[nH]1 | > 100 µM (inactive) |
